From: patent US10844062B2

These compounds were tested on B-Raf (Homo sapiens (Human), UniProt P15056); pIC50 is the recorded read-out.
Sequence (P15056 whole entry): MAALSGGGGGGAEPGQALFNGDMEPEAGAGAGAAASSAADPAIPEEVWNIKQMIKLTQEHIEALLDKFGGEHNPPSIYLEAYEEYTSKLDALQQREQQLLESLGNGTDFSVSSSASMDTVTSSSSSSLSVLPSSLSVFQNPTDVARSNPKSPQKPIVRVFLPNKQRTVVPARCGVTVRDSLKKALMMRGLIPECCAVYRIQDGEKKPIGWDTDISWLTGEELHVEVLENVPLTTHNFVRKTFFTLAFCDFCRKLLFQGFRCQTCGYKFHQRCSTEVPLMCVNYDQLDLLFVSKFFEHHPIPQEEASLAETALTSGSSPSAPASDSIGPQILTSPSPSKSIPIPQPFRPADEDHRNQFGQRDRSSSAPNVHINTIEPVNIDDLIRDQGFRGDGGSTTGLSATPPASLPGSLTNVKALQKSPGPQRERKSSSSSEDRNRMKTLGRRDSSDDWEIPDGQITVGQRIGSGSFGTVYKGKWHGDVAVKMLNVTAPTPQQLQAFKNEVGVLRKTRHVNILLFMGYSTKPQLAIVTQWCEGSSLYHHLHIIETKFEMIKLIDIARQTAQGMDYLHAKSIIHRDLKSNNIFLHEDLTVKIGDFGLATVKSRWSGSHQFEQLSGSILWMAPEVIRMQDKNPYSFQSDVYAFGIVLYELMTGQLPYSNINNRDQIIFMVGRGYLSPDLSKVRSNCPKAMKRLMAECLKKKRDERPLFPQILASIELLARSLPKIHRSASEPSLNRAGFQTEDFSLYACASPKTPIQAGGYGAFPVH
Lab note: report pIC50 as minus log10 of the concentration in molar units, number only.

Worked examples, 2 compounds total:
- Molecular String: "O=C(Nc1cc(Nc2ncccc2-c2ncnc3[nH]cnc23)ccc1F)c1cc(F)cc(C(F)(F)F)c1"
  Result: 7.15
- Molecular String: "O=C(Nc1ccc(F)c(Nc2ncccc2-c2ncnc3[nH]cnc23)c1F)c1cccc(C(F)(F)F)c1"
  Result: 7.47

Please examine the following record next.
Tell me pIC50 reported for O=C(Nc1cc(Nc2ncccc2-c2ncnc3[nH]cnc23)ccc1F)c1cc(C(F)(F)F)cc(C(F)(F)F)c1
6.48
